- system: BSA (Bos taurus)
- Construct: purchased Millipore Sigma-Aldrich
- Sequence (P02769 25-607): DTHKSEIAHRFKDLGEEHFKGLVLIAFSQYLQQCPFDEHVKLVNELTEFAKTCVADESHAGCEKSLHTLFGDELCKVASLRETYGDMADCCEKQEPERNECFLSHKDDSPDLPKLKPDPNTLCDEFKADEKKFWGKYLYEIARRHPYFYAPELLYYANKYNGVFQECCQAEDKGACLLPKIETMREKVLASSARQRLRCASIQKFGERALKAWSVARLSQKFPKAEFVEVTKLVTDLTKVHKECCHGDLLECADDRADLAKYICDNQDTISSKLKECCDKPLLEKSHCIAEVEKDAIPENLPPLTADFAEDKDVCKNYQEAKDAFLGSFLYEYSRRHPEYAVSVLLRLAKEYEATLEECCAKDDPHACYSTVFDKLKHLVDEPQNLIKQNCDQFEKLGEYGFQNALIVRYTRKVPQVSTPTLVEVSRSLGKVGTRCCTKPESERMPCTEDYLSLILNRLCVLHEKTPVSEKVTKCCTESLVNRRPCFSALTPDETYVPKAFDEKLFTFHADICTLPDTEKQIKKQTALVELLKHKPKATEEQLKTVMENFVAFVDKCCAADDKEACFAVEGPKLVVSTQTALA
- assay.summary: Far-UV CD secondary structure of BSA (CONTIN-LL deconvolution)
- Assay type: physicochemical, bovine
- conditions: 1.0 mg/mL BSA, 90 mM component, 25 °C
metric: Unordered
Hey, just send me the number, nothing else.

Solved entries:
                                   compound            system  numeric_value
0  CCCCn1cc[n+](C)c1.O=S(=O)([O-])C(F)(F)F [[C4C1Im][CF3SO3]]  BSA (Bos taurus)          0.247
1  C[N+](C)(C)CCO.O=S(=O)([O-])C(F)(F)C(F)(F)C(F)(F)C(F)(F)F [[N1112(OH)][C4F9SO3]]  BSA (Bos taurus)          0.215
2  CCn1cc[n+](C)c1.O=S(=O)([O-])C(F)(F)C(F)(F)C(F)(F)C(F)(F)F  BSA (Bos taurus)          0.239

Recorded Unordered of C[N+](C)(C)CCO.C[N+](C)(C)CCO.O=P([O-])(O)O.O=P([O-])(O)O [[N1112(OH)][H2PO4]] , please.
0.289

Recorded Unordered of `OC[C@H]1O[C@@](CO)(O[C@H]2O[C@H](CO)[C@@H](O)[C@H](O)[C@H]2O)[C@@H](O)[C@@H]1O` , please.
0.227
